# assay.target: T1, soluble heterodimeric hCD3ε/δ.mFc protein (human)
# T1 construct: also called soluble human CD3; soluble heterodimeric CD3 protein
# T1 chain 1: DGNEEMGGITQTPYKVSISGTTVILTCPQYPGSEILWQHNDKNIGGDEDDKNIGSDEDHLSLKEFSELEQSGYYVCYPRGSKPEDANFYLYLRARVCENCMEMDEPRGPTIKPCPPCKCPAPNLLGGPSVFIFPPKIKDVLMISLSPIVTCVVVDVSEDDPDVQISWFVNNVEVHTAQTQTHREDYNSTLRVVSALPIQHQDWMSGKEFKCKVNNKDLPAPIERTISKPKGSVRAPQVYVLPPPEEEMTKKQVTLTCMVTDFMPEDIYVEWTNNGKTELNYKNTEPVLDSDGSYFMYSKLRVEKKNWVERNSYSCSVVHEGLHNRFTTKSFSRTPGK
# T1 chain 2: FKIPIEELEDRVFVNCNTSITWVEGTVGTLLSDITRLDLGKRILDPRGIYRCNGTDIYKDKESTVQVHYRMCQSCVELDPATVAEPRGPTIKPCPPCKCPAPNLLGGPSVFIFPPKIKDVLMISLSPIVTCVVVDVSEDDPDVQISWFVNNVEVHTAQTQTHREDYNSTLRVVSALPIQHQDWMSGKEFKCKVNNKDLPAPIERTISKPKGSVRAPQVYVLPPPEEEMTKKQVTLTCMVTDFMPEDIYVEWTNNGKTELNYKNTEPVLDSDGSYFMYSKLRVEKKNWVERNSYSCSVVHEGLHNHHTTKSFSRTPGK
# experiment.summary: SPR MASS-1, 37 C, antigen-capture (hCD3ε/δ.mFc captured), antibody injected

- binder: "BSPSMA/CD3-1000 (bispecific antibody, IgG4, V domains shown, modified (chimeric) IgG4 Fc domain; also called PSMA-VH-11810 x CD3-VH-G10) VH 1: QVQLVESGGGVVQPGRSLRLSCAASGFTFSSYGMHWVRQAPGKGLEWVAVISYAGNNKYYADSVKGRFTVSRDNSKKTLYLQMNSLRSEDTAVYYCAKDSYYDFLTDPDVLDIWGQGTMVTVSS VH 2: EVQLVESGGGLVQPGRSLRLSCAASGFTFDDYSMHWVRQAPGKGLEWVSGISWNSGSKGYADSVKGRFTISRDNAKNSLYLQMNSLRAEDTALYYCAKYGSGYGKFYYYGLDVWGQGTTVTVSS VL: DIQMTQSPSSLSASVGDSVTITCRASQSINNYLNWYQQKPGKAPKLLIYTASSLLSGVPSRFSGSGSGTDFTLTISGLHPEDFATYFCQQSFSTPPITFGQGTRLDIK"
  T½ (min): 1.8
